experimental_target: Serotonin 5-HT7 (Human recombinant) (Homo sapiens, UniProt P34969)
Sequence (P34969 whole entry): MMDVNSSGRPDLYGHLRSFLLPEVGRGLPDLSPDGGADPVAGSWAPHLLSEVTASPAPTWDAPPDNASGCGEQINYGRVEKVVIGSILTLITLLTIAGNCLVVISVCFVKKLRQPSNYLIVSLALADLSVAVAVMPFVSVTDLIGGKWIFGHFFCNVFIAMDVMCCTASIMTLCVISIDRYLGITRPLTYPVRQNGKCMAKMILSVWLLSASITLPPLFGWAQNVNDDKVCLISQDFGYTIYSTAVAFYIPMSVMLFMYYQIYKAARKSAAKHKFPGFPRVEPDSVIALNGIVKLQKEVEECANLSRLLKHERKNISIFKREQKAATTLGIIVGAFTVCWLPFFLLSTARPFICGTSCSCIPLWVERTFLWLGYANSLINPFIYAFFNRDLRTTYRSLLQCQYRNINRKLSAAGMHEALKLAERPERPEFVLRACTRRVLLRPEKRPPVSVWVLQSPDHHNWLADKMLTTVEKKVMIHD
assay_remarks: Competitive radioligand binding assay, serotonin 5-HT7
readout_name: pKi
The quantity pKi is defined as the negative base-10 logarithm of the molar concentration.

**Q:** Entry under review: `CCN[C@@H](C)Cc1cccc(C(F)(F)F)c1` . Reported pKi?
**A:** 5.15

---

experimental_target: Serotonin 5-HT7 (Human recombinant) (Homo sapiens)
assay_remarks: Competitive radioligand binding assay, serotonin 5-HT7
readout_name: IC50
The answer should read as a number with its unit following.

**Q:** Quick check: IC50 of `CCN[C@@H](C)Cc1cccc(C(F)(F)F)c1` ?
**A:** 7.52 µM

---

experimental_target: UniProt P07550
Sequence (P07550 whole entry): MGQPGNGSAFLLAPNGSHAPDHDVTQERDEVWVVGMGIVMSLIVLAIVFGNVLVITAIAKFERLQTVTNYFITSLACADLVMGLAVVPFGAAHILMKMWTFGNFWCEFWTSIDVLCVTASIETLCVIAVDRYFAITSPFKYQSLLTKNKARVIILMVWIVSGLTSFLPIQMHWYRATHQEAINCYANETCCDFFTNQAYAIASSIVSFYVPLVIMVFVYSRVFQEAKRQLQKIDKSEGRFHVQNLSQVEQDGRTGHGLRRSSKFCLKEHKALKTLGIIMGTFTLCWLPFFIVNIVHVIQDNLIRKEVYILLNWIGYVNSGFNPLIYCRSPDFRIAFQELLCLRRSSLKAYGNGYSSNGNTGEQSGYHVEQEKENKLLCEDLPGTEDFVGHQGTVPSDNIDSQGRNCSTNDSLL
assay_remarks: β-2 adrenergic receptor antagonist assay, agonist-induced cAMP production (HTRF)
Format: cell-based
Set-up: expressed in transfected cells; host or cells: HEK-293
test_parameters: inhibition of isoproterenol-induced cAMP production
readout_name: antagonist activity at the beta-2 adrenergic receptor

CCNC(C)Cc1cccc(C(F)(F)F)c1 (racemic) ... some antagonist activity
CC(N)Cc1cccc(C(F)(F)F)c1 (single isomer, unassigned; (-)) [(−)norfenfluramine] ... antagonist activity
CCN[C@@H](C)Cc1cccc(C(F)(F)F)c1 [(+)fenfluramine] ... antagonist activity
CC(N)Cc1cccc(C(F)(F)F)c1 (stereo not shown) [norfenfluramine] ... some antagonist activity

---

experimental_target: hNav1.5 (Homo sapiens, UniProt Q14524)
Sequence (Q14524 whole entry): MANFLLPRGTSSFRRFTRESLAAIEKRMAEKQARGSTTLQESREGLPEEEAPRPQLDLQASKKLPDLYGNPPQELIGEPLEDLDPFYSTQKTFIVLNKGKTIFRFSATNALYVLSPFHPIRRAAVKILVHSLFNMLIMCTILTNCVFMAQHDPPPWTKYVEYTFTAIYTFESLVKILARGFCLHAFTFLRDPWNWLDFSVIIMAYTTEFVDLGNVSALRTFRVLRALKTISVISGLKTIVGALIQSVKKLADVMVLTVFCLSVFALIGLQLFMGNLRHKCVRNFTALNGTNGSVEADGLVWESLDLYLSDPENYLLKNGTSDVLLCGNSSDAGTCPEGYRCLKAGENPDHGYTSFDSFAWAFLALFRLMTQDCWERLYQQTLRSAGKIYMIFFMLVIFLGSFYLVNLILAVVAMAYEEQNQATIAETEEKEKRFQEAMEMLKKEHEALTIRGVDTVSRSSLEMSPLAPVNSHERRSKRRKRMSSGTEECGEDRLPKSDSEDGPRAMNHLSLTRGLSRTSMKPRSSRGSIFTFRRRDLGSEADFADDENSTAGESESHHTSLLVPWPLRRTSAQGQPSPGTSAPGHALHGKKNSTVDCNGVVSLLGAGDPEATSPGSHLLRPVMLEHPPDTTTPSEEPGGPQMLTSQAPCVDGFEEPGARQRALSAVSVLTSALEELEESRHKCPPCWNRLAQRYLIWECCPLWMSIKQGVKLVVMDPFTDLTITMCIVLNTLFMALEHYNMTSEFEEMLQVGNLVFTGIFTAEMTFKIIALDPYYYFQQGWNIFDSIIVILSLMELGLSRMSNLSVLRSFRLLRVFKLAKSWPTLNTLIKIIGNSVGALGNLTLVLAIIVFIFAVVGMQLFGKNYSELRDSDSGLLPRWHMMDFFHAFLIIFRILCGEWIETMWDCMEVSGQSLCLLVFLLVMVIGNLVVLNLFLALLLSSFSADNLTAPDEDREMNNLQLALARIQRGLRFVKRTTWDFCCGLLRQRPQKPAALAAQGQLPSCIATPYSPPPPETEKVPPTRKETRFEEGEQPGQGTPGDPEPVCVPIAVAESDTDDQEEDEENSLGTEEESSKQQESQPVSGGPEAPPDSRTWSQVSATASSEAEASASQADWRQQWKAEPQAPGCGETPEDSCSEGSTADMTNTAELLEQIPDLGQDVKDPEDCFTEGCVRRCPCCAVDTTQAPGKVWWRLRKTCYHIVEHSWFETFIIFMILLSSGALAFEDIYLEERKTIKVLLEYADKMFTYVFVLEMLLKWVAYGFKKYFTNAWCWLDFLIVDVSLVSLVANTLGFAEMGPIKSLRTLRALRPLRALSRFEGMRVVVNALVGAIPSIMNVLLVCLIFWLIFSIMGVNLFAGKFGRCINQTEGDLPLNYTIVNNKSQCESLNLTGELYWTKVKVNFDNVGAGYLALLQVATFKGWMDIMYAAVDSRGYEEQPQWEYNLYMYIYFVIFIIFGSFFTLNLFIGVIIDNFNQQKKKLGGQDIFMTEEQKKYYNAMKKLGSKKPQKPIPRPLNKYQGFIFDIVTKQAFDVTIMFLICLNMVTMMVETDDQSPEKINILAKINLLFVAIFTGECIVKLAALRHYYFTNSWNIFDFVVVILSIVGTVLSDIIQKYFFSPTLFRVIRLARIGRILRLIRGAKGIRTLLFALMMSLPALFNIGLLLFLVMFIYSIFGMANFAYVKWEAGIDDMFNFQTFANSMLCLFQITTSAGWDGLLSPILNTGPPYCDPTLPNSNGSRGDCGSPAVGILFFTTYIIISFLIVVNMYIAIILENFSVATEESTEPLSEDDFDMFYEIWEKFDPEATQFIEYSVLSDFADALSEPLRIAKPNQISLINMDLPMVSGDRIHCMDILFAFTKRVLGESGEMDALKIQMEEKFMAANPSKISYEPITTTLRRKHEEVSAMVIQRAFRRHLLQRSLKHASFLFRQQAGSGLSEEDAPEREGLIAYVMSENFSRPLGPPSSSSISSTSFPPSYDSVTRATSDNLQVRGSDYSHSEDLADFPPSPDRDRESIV
assay_remarks: Ion channel profiling, IonFlux HT automated patch clamp, hNav1.5
pIC50: −log10 of the molar value.
readout_name: pIC50

**Q:** Sample CCNC(C)Cc1cccc(C(F)(F)F)c1 (racemic) — what was its pIC50?
**A:** < 4.52

**Q:** Record request: pIC50 value, item `CCN[C@@H](C)Cc1cccc(C(F)(F)F)c1`
**A:** < 4.52

---

experimental_target: serotonin 5-HT1A (Rattus norvegicus)
Construct: serotonin 5-HT1A (rat cerebral cortex); from tissue; host or cells: rat cerebral cortex
Sequence (P19327 whole entry): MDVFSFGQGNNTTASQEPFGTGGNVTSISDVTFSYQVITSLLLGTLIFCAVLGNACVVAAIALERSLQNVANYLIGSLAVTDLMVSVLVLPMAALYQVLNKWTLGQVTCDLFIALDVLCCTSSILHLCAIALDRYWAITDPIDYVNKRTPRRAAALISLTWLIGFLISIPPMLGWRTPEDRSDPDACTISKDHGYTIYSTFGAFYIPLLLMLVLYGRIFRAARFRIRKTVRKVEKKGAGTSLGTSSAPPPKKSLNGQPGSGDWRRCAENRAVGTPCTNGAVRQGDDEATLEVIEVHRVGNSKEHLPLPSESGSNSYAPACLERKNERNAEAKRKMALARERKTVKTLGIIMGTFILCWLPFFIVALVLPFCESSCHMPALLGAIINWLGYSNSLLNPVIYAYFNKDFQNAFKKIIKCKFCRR
assay_remarks: Competitive radioligand binding assay, serotonin 5-HT1A
test_parameters: Example 3; Ki=IC50/(1+L/Kd), IC50 expressed in mol/L; read-out: Ki, 5-HT1A
readout_name: pKi
The scale used: pKi is minus the common logarithm of the concentration in molar units.

**Q:** Tell me the measured pKi of CC(N)Cc1cccc(C(F)(F)F)c1 (single isomer, unassigned; (+)) [(+)norfenfluramine] , please.
**A:** 5.94

**Q:** Would you kindly share the measured pKi for CC(N)Cc1cccc(C(F)(F)F)c1 (single isomer, unassigned; (-)) [(−)norfenfluramine] ?
**A:** 6.39
